B1: DnaJ homolog subfamily C member 2, residues 451 to 503; numbered along this chain, Q99543 (parent)
chain: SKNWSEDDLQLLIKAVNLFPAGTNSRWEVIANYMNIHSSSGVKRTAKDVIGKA

Variants of: B1
Assay: abundance fitness (aPCA) (normalised: wild type 0, dead -1); higher = more abundant; growth selection in yeast, the domain comes from the species named
Details: Homo sapiens
Records here are stratified by abundance fitness; strata: range A (below -0.4), range B (-0.4 to below -0.1), range C (-0.1 or more)

Examples with answers:
1) S5D	range A
2) D8E	range C
3) T23H	range B

Data request: Hello team, could you let me know which band the following variant falls into: N3L
Data returned: range B

Data request: Cool, now M34G
Data returned: range A

Data request: Cool, now I13M
Data returned: range C

Data request: Cool, now G22F
Data returned: range A

Data request: Cool, now K43D
Data returned: range C

Data request: Cool, now N35C
Data returned: range A

Data origin, for the record: the Human Domainome abundance scans (Beltran et al. 2025)
